All figures here come from PubChem BioAssay.

target: Albumin (Bos taurus) (UniProt P02769)
Sequence (P02769 whole entry, looked up): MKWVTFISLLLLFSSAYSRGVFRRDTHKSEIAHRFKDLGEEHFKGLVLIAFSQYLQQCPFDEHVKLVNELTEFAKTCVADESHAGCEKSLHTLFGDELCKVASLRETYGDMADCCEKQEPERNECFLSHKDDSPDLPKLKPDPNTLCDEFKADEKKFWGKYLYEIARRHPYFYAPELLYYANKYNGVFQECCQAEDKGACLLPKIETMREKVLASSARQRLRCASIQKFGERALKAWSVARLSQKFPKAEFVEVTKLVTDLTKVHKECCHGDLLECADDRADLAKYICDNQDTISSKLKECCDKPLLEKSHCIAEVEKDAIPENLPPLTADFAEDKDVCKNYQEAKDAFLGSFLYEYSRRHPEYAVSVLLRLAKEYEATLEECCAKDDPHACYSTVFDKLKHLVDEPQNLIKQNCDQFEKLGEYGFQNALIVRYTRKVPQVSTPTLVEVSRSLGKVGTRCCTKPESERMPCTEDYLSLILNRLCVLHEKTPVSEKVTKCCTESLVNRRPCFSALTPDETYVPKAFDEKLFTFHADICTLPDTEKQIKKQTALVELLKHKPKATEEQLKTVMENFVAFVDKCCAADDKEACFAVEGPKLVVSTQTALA
procedure.details: compounds binding labelled BSA control protein – biochemical, small-molecule microarray, Alexa647 label, 635/667 nm fluorescence, artefact control for SMM control protein annotation, profiling panel (AID 1118);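 further: score merges 667 nm emission intensity and signal-to-noise per printed compound spot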
test.conditions: BSA-A647 binding, fluorescence 635 nm, higher = more signal

- compound: "COc1ccc([Si](C)(C)[C@@H]2[C@@H](CC(=O)N3Cc4ccccc4C[C@H]3CO)O[C@]3(C(=O)N(Cc4cccc(N5CCCCC5=O)c4)c4ccccc43)[C@H]2C)cc1"
  composite z-score: -0.565
- compound: "O=C1C2C=CC(C(O)c3ccccn3)N(Nc3ccccc3)C2C(=O)N1c1ccccc1 (configuration not stated)"
  composite z-score: 1.03
- compound: "Cc1ccc(N2C(=O)c3ccccc3[C@](C)(C(=O)NC(C)C)[C@@H]2c2ccc(CO)cc2)nc1"
  composite z-score: -0.546
- compound: "CN1C(=O)C2C=CC(C(O)c3cccc4ccccc34)N(NC(=O)OC(C)(C)C)C2C1=O (configuration not stated)"
  composite z-score: 1
- compound: "COC(=O)c1c(CC[C@@H](CO)NC(=O)N[C@@H](C)Cn2cc(C3(O)CCCC3)nn2)oc(C(C)=O)c1C(=O)OC"
  composite z-score: 0.815
- compound: "COC(=O)[C@@]1(Cc2ccc(OC)cc2)[C@H]2c3cc(C(=O)N(C)C)n(CCF)c3C[C@H]2CN1C(=O)c1ccccc1"
  composite z-score: 1.01
- compound: "COCC1=C([C@H](O)CCc2ccccc2)[C@H](CO)[C@@H]2C(=O)N(C)C(=O)[C@@H]2C1"
  composite z-score: 0.218

====

procedure.details: binders of probe aHhip on microarray, primary screen, stem cell growth factor project, biochemical, small-molecule microarray, fluorescence 635/667 (AID 1087);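 further: score merges spot fluorescence at 667nm with spot signal to noise ratio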
test.conditions: higher = more signal
Entries annotated with measured composite z-score
readout.label: composite z-score

- line.notation: "CO[C@H]1O[C@H](CO)[C@@H](OC(=O)Nc2cccc(F)c2)[C@H](OC(=O)Nc2ccc3c(c2)OCO3)[C@H]1OC(=O)Nc1ccc2c(c1)OCO2"
  readout.label: "composite z-score"
  measured.value: -0.201
- line.notation: "CC(=O)NCCCC[C@@H]1NC(=O)[C@H]2C[C@@H](C(=O)NCCCCCN)[C@@H](c3cccc(OCCO)c3)N2C1=O"
  readout.label: "composite z-score"
  measured.value: 0.758
- line.notation: "O=C1C[C@@](C(=O)NCc2ccccc2)(c2ccc([N+](=O)[O-])cc2)[C@@H](c2ccc(CO)cc2I)N1C1CCCCC1"
  readout.label: "composite z-score"
  measured.value: 0.368

====

Entries annotated with measured composite z-score
procedure.details: probe aLefty2 binding to arrayed compounds – biochemical, biotinylated probe, 635/667 nm fluorescence, primary screen (AID 1094);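 further: score merges spot fluorescence near 667 nm with spot signal-to-noise ratio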
test.conditions: small-molecule microarray, higher = more signal
readout.label: composite z-score

- compound: "OCCCC1=CC(c2cccs2)N(Cc2cccc(OC(F)(F)F)c2)CC1 (stereo not drawn)"
  readout.label: "composite z-score"
  measured.value: -0.0998
- compound: "CC(C)NC(=O)[C@@H]1c2ccccc2C(=O)N(Cc2cc(C(F)(F)F)cc(C(F)(F)F)c2)[C@H]1c1ccc(CO)cc1"
  readout.label: "composite z-score"
  measured.value: -0.0107
- compound: "COCCOC(=O)N1C(=O)[C@@]2(c3ccccc31)[C@H](c1ccc(OCCO)cc1)N1[C@H](c3ccccc3)[C@H](c3ccccc3)OC(=O)[C@H]1[C@@H]2C(=O)NC[C@H](O)c1ccccc1"
  readout.label: "composite z-score"
  measured.value: 0.187
- compound: "CC(C)CCC[C@@H](C)[C@H]1CC[C@@]2(C)C3=C(CC[C@]12C)[C@@]1(C)CC[C@H](OC(=O)c2ccc(N)cc2)C(C)(C)C1CC3 (stereo partly drawn)"
  readout.label: "composite z-score"
  measured.value: -0.19
- compound: "O=C1C[C@@](C(=O)O)(c2ccc([N+](=O)[O-])cc2)[C@@H](c2ccc(CO)cc2)N1CC12CC3CC(CC(C3)C1)C2"
  readout.label: "composite z-score"
  measured.value: 0.0446
- compound: "C[C@]12C(=O)N(CCCCCO)[C@@H]3C(=O)N(c4ccc(Cl)cc4)CC=CC31O[C@@H]1/C=C\\CCCOC(=O)C12 (stereo partly drawn)"
  readout.label: "composite z-score"
  measured.value: -0.0986
- compound: "C=CCOC(=O)[C@@H]1[C@H]2C(=O)O[C@H](c3ccccc3)[C@H](c3ccccc3)N2[C@H](c2ccc(OCCOC(=O)[C@H]3C[C@H]4C(=O)N[C@@H](Cc5ccccc5)C(=O)N4[C@H]3c3cccc(OCCO)c3)cc2)[C@@]12C(=O)Nc1ccc(I)cc12"
  readout.label: "composite z-score"
  measured.value: -0.193
- compound: "CC(C)N1C(=O)c2ccccc2[C@](C)(C(=O)O)[C@@H]1c1ccc(CO)cc1"
  readout.label: "composite z-score"
  measured.value: -0.0395

====

Test system: Human papillomavirus type 1a E7 protein (residues 1-88)
procedure.details: HPV1a E7 small-molecule binders, primary screen, biochemical, small-molecule microarray, residues 1-88, 635 nm (AID 1129)
test.conditions: small-molecule microarray binding, fluorescence 635 nm; higher = more signal

- compound: "CCCCC(=C=CC[C@H](O)c1cccc(OCCO)c1)C[C@H](O)COCc1ccccc1"
  composite z-score: 0.101
- compound: "CN(C)C(=O)[C@@]1(CCS(=O)(=O)c2ccccc2)N=C(c2ccc(OCCCO)cc2)O[C@H]1c1ccccc1CN=[N+]=[N-]"
  composite z-score: 1.25
- compound: "CC(=O)NCCCC[C@@H]1NC(=O)[C@H]2C[C@@H](C(=O)NCCCCCN)[C@@H](c3cccc(OCCO)c3)N2C1=O"
  composite z-score: 0.759
- compound: "O=C1N(CCS(=O)(=O)c2ccccc2)c2ccccc2[C@H]2OC(c3ccc(OCCCO)cc3)=N[C@@]12CCS(=O)(=O)c1ccccc1"
  composite z-score: 1.21
- compound: "Cc1ccc(F)cc1S(=O)(=O)N[C@@H]1CCN(C(=O)c2ccc(OC(C)C)cc2)C1"
  composite z-score: 1.16
- compound: "O=C1NC(=O)C2C1C=CC(C(O)c1ccc3c(c1)OCO3)N2Nc1ccc(Cl)cc1Cl (stereo not drawn)"
  composite z-score: 0.453
- compound: "[N-]=[N+]=NCc1ccccc1[C@H]1OC(c2ccc(OCCCO)cc2)=N[C@@]1(Cc1ccccc1N=[N+]=[N-])C(=O)NCCN1CCOCC1"
  composite z-score: 1.27
- compound: "CCOC(=O)C[C@H]1[C@H](OC(=O)c2cc3ccccc3oc2=O)[C@@H](NC(=O)c2ccc3ccccc3n2)c2cc(OCCCO)ccc2N1C(=O)c1ccc2ccccc2n1"
  composite z-score: 0.784
- compound: "CCCNC(=O)[C@@H]1c2ccccc2C(=O)N(CC23CC4CC(CC(C4)C2)C3)[C@H]1c1ccc(CO)cc1"
  composite z-score: 1.23
- compound: "COC(=O)c1ccc(OC)c(/C=C\\CC(CCc2ccccc2)OC(=O)c2ccncc2)c1 (stereo not drawn)"
  composite z-score: -0.235
- compound: "CC(C)N1C(=O)c2ccccc2[C@](C)(C(=O)O)[C@@H]1c1ccc(CO)cc1"
  composite z-score: -1.44
- compound: "CCCC=C(CCC)[C@@H](NS(=O)(=O)c1ccccc1)c1ccc(C(F)(F)F)cc1"
  composite z-score: 1.21
- compound: "[N-]=[N+]=NCc1ccccc1[C@H]1OC(c2ccc(OCCCO)cc2)=N[C@@]1(Cc1ccccc1N=[N+]=[N-])C(=O)N1CCCCC1"
  composite z-score: 1.23
- compound: "O=C1N(Cc2ccccc2)c2ccccc2[C@H]2OC(c3ccc(OCCCO)cc3)=N[C@@]12CCS(=O)(=O)c1ccccc1"
  composite z-score: 1.25
- compound: "Cc1ccccc1C(O)C1C=CC2C(=O)N(C)C(=O)C2N1Nc1ccc([N+](=O)[O-])cc1[N+](=O)[O-] (stereo not drawn)"
  composite z-score: 1.27
- compound: "C=CC[C@]1(C(=O)NCC(O)CO)N=C(c2ccc(OCCCO)cc2)O[C@H]1c1ccccc1N=[N+]=[N-] (stereo partly drawn)"
  composite z-score: 0.653
- compound: "C=CCNC(=O)[C@H]1[C@@H]2C(=O)O[C@@H](c3ccccc3)[C@@H](c3ccccc3)N2[C@@H](c2ccc(OCCO)cc2)[C@]12C(=O)N(C(=O)OCCOC)c1ccc(C#CC3=CCCCC3)cc12"
  composite z-score: 1.2
- compound: "COCCOC(=O)N1C(=O)[C@@]2(c3cc(C#CCCO)ccc31)[C@H](c1ccc(OCCO)cc1)N1[C@H](c3ccccc3)[C@H](c3ccccc3)OC(=O)[C@H]1[C@@H]2C(=O)N1CCc2cc(OC)c(OC)cc2C1"
  composite z-score: 1.19
- compound: "CC(C)(C)OC(=O)CC[C@@]1(C(=O)N2CCCCC2)N=C(c2ccc(OCCCO)cc2)O[C@@H]1c1ccccc1N=[N+]=[N-]"
  composite z-score: 1.27
- compound: "COCCCNC(=O)[C@]1(Cc2ccccc2)N=C(c2ccc(OCCCO)cc2)O[C@@H]1c1ccccc1N=[N+]=[N-]"
  composite z-score: 1.22
- compound: "O=C(O)[C@]1(CCS(=O)(=O)c2ccccc2)N=C(c2ccc(OCCCO)cc2)O[C@@H]1c1ccccc1"
  composite z-score: 0.228
- compound: "COC(=O)[C@@]1(Cc2ccc(F)cc2)[C@H]2c3cc(C(=O)N(C)C)n(CCSCCO)c3C[C@H]2CN1C(=O)c1ccccc1"
  composite z-score: 0.674
- compound: "C=CCOC(=O)[C@@H]1[C@H]2C(=O)O[C@H](c3ccccc3)[C@H](c3ccccc3)N2[C@H](c2ccc(OCCOC(=O)[C@@H]3C[C@@H]4C(=O)N[C@@H](CCCCNC(C)=O)C(=O)N4[C@@H]3c3ccc(O)cc3)cc2)[C@@]12C(=O)Nc1ccc(I)cc12"
  composite z-score: 1.21
